target: purified human glycophorin A protein (Sigma, cat # G5017) (human) (UniProt P02724); experiment: ELISA, native hGPA

Binder: TPP-5336 (Fab, V domains shown) VH: EVQLVQSGAEVKKPGASVKVSCKASGYTFTTYTIHWVRQAPGQGLEWIGYINPSSDYTRYNPKFKDRVTLTTDKSTSTAYMELRSLRSDDTAVYYCQRGTRDYWGQGTTVTVSS VL: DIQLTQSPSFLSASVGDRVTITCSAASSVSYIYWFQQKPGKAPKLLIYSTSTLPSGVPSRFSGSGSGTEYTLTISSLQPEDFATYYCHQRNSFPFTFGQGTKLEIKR
binding by ELISA relative to parental: 0.06
--
Binder: TPP-5353 (Fab, V domains shown) VH: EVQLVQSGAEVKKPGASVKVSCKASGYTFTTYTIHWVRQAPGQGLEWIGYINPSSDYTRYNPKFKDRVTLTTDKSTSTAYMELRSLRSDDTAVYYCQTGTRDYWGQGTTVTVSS VL: DIQLTQSPSFLSASVGDRVTITCSAASSVSYIYWFQQKPGKAPKLLIYSTSTLPSGVPSRFSGSGSGTEYTLTISSLQPEDFATYYCHQLNSFPFTFGQGTKLEIKR
binding by ELISA relative to parental: 0.04
--
Binder: TPP-5321 (Fab, V domains shown) VH: EVQLVQSGAEVKKPGASVKVSCKASGYTFTTYTIHWVRQAPGQGLEWIGIINPSSDYTRYNPKFKDRVTLTTDKSTSTAYMELRSLRSDDTAVYYCQTGTRDYWGQGTTVTVSS VL: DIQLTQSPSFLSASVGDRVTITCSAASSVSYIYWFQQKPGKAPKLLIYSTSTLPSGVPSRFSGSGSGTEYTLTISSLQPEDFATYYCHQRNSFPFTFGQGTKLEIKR
binding by ELISA relative to parental: 0.06
--
Binder: TPP-5346 (Fab, V domains shown) VH: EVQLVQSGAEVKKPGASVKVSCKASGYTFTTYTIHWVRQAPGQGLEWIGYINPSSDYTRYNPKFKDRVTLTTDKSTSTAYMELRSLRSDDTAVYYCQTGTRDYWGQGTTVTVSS VL: DIQLTQSPSFLSASVGDRVTITCSAASSVSYIAWFQQKPGKAPKLLIYSTSTLPSGVPSRFSGSGSGTEYTLTISSLQPEDFATYYCHQRNSFPFTFGQGTKLEIKR
binding by ELISA relative to parental: 0.04
--
Binder: TPP-5325 (Fab, V domains shown) VH: EVQLVQSGAEVKKPGASVKVSCKASGYTFTTYTIHWVRQAPGQGLEWIGYINPSSDYTSYNPKFKDRVTLTTDKSTSTAYMELRSLRSDDTAVYYCQTGTRDYWGQGTTVTVSS VL: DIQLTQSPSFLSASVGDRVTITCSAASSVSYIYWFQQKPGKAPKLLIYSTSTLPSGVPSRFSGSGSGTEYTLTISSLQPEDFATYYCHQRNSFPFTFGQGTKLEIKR
binding by ELISA relative to parental: 0.07
